Hey, just so you know, these numbers are from patent US20200308267A1.

# target: T1, recombinant human VEGF165 (human, UniProt P15692-4 27-191, biotinylated (Sulfo-NHS-LC-Biotin) in the competition assays)
# T1 construct: also called hVEGF165; rhVEGF165
# T1 sequence (P15692 other isoform, or with tags, fused parts or gaps limits assumed): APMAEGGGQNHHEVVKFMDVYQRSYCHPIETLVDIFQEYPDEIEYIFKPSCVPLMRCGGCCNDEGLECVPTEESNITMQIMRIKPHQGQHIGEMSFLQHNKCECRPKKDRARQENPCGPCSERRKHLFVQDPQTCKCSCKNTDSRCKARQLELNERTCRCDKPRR
# assay overview: Biacore, periplasmic extract, VEGF165 chip, two phase decay fit
# Set-up: unit not given here
parameter measured: kd(fast)

>>> result_number("VEGFBII23G03 (VHH, not shown: small tags and cut ends) VHH: EVQLVESGGGLVQPGDSLKLSCAFSGRTFGSYSMGWFRQAQGKEREFVVAISSSGGYIYDSVSLEGRFTISRDNSKNTVYLQTPSLKPEDTAVYYCAASRAYGSSRLRLPGTYDYWGQGTQVTVSS")
0.028

[P] VEGFBII60A09 (VHH, not shown: small tags and cut ends) VHH: EVQLVESGGGLVQPGDSLKLSCAFSGRTFSSYSMGWFRQAQGKEREFVVAISSSGGYIYDSVSLEGRFTISRDNTRNTVYLQTPSLKPEDTADYYCAASRAYGSSRLRLADTYDYWGQGTQVTVSS
[Q] VEGFBII22B07 (VHH, not shown: small tags and cut ends) VHH: EVQLVESGGGLVQAGDSLRLSCAASGRTFSSYSMGWFRQAQGKEREFVVAISSSGNYKYDSVSLEGRFTISRDNTKNTVYLQINSLKPEDTAVYYCAASRAYGSSRLRLGDTYDYWGQGTQVTVSS
[Q] Compare kd(fast): is it lower for P or for Q ? Identify your pick by its label.
[A] Q
